Test system: TESK1
condition_description: concentration: 1 μM, replicates: in singlicate; n = 1;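 further: KINOMEscan kinase panel screen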
Parameter: %Inh. Scope: all listed entries.
quantity_measured: %Inh (%)

> print(dat)
                                   compound  system.under.test  units.label  obs.value
1  Cc1ccc(C(=O)NCC(N)=O)cc1-n1c(C)cc(OCc2ccc(F)cc2F)c(Br)c1=O              TESK1            %         31
2  CN1c2ccc(NCc3ccc(F)cc3)cc2-c2c(cnn2C)S1(=O)=O              TESK1            %         14
3    CCCCCc1nc2c(N)ncnc2n1CCCCC [SKF-97255]              TESK1            %         14
4  Cn1ccc2ncnc(Oc3ccc(NC(=O)Nc4ccncc4)c(Cl)c3)c21              TESK1            %          0

* * *

System: MYO3A
condition_description: concentration: 1 μM, replicates: in singlicate; n = 1
Parameter: %Inh. Scope: all listed entries.
quantity_measured: %Inh (%)

> print(dat)
                                    compound  obs.value
 1  O=C(NOCC1CC1)c1ccc(F)c(F)c1Nc1ccc(I)cc1Cl          0
 2  O=C(NCCNc1ccnc(Nc2ccc(F)cc2)n1)c1cc2ccccc2s1 [GSK1379874]          0
 3    CCCCCc1nc2c(N)ncnc2n1CCCCC [SKF-97255]          1
 4  O=c1cc(N2CCOCC2)nc2n(Cc3cccc4ccccc34)ccn12 [GSK2333389]          0
 5  NS(=O)(=O)c1cccc(-c2ccc3nccc(-c4cccc(S(N)(=O)=O)c4)c3c2)c1 [GW867253]          0
 6  COc1cc2c(cc1OCCN1CCN(C)CC1)ncc1c3ccc(C#N)cc3[nH]c21          0
 7  COc1cc2ncn(-c3cc(OCc4sccc4Cl)c(C(N)=O)s3)c2cc1OC [GSK448459]         12
 8  CN1c2ccc(NCc3ccc(F)cc3)cc2-c2c(cnn2C)S1(=O)=O          0
 9  Nc1nccc(-c2c(-c3ccc(F)cc3)ncn2C2CCN(CC(F)(F)F)CC2)n1 [SB-236560]          0
10  Cc1cccc(Cn2ccn3c(=O)cc(N4CCOCC4)nc23)c1 [GSK2297542]         11

* * *

Parameter: %Inh. Scope: all listed entries.
Tested on: MST3
Construct: gene STK24
condition_description: concentration: 1 μM, replicates: in singlicate; n = 1
quantity_measured: %Inh (%)

> print(dat)
                                    compound  quantity.measured  obs.value
 1   O=c1cc(N2CCOCC2)nc2n(Cc3cccc(F)c3)ccn12               %Inh          3
 2  Cl.Oc1cccc(Nc2ccnc3cc(-c4ccncc4)ccc23)c1               %Inh         13
 3  NS(=O)(=O)c1cccc(-c2ccc3ncc(N4CCOCC4)nc3c2)c1               %Inh          0
 4  Cc1c2ccc(N(C)c3ccnc(Nc4cccc(S(N)(=O)=O)c4)n3)cc2nn1Cc1ccccc1.Cl.Cl               %Inh          0
 5  COCCNC(=O)c1ccc(-c2cc(C(=O)NC3CC3)cc(F)c2C)cc1               %Inh          3
 6  N#Cc1ccc(-c2cc(-c3c[nH]nc3-c3ccccn3)ccn2)cc1               %Inh          0
 7  COc1ccc(Nc2nccc(N3CCC(NC(=O)Nc4cccc(C(C)=O)c4)C3)n2)cc1 (stereo not shown)               %Inh          0
 8  Cc1nnc(-c2ccc3ncc(-c4ccc(S(C)=O)cc4)n3c2)o1 (stereo not shown)               %Inh         14
 9  Cn1cc(-c2ccc3c(c2)CCN3C(=O)Cc2ccccc2Cl)c2c(N)ncnc21               %Inh         30
10      CN(C1=C(c2ccccc2)C(=O)NC1=O)c1ccccc1               %Inh          7
11  Cc1ccc(NC(=O)c2ccnc(N3CCN(C)CC3)c2)cc1-c1ccc(C(=O)NCC2CC2)cc1               %Inh          0
12  COc1ccc(COc2cc(-n3cnc4ccccc43)sc2C(N)=O)cc1               %Inh          0
13  Cc1cccc(-c2nc(Nc3ccc4ncsc4c3)c3ccccc3n2)n1               %Inh          0

* * *

Parameter: %Inh. Scope: all listed entries.
Test system: AKT3
condition_description: concentration: 1 μM, replicates: in singlicate; n = 1
quantity_measured: %Inh (%)

> print(dat)
                                    compound  quantity.measured  obs.value
 1  COc1cc(Nc2nccc(N3CCC(NC(=O)c4cccc(NC(C)=O)c4)C3)n2)cc(OC)c1OC (stereo not shown)               %Inh          0
 2  CCc1nc(-c2cccc(C)c2)c(-c2ccnc(NCc3ccccc3)c2)s1               %Inh          0
 3  Cc1cccc(-c2nc(-c3ccc(S(C)(=O)=O)cc3)sc2-c2ccncc2)c1               %Inh          0
 4  Cc1ccc(NC(=O)c2ccnc(N3CCN(C)CC3)c2)cc1-c1ccc(C(=O)NCC2CC2)cc1               %Inh          6
 5  c1ccc(-c2cc(-c3c[nH]nc3-c3ccccn3)ccn2)cc1               %Inh          0
 6  COc1ccc(COc2cc(-n3cnc4ccccc43)sc2C(N)=O)cc1               %Inh         54
 7  O=C(Nc1n[nH]c2cc(-c3cccc(F)c3)ccc12)C1CC1               %Inh         19
 8      CN(C1=C(c2ccccc2)C(=O)NC1=O)c1ccccc1               %Inh          0
 9                        CCn1cnc2c(N)ncnc21               %Inh          0
10  COC(=O)Nc1nc2cc(Oc3ccc(NC(=O)Nc4cc(F)ccc4F)cc3)ccc2[nH]1.Cl               %Inh          0
11  CCc1ccnc(/C=C/c2n[nH]c3cc(Sc4ccccc4C(=O)NC)ccc23)c1               %Inh          8
12                  CC(C)(C)n1cnc2c(N)ncnc21               %Inh          0
13  Cn1cc(-c2ccc3c(c2)CCN3C(=O)Cc2ccccc2Cl)c2c(N)ncnc21               %Inh          0
14  CN(C(=O)c1ccc(-c2cc(-c3c[nH]nc3-c3ccccn3)ccn2)cc1)C1CCOCC1               %Inh          0
15  Cc1cccc(-c2nc(Nc3ccc4ncsc4c3)c3ccccc3n2)n1               %Inh          0
16  COc1cc2ncn(-c3cc(OCc4sccc4Cl)c(C(N)=O)s3)c2cc1OC               %Inh          0
17  Cc1cn2c(=O)cc(N3CCOCC3)nc2n1Cc1cccc(Cl)c1Cl               %Inh         26
18  Cc1ccc(C(=O)NCC(N)=O)cc1-n1c(C)cc(OCc2ccc(F)cc2F)c(Br)c1=O               %Inh          0
19  Fc1ccc(-c2ncn(CCCN3CCOCC3)c2-c2cccnc2)cc1               %Inh         10
20                CCCCCc1nc2c(N)ncnc2n1CCCCC               %Inh          0
21      c1ccc(-c2n[nH]cc2-c2ccnc3ccccc23)nc1               %Inh          0
22      CSc1ccc(-c2cc3ncnc(SCC(=O)O)c3s2)cc1               %Inh          0
23  O=C1Cc2cc(Nc3nc(NCc4cccc(S(=O)(=O)C(F)(F)F)c4)ncc3C(F)(F)F)ccc2N1               %Inh          0
24  COc1cc2c(cc1OCCN1CCN(C)CC1)ncc1c3ccc(C#N)cc3[nH]c21               %Inh          0
25  O=C(NCCNc1ccnc(Nc2ccc(F)cc2)n1)c1cc2ccccc2s1               %Inh          0
26  COc1ccc(Nc2nccc(N3CCC(NC(=O)Nc4cccc(C(C)=O)c4)C3)n2)cc1 (stereo not shown)               %Inh          0
27  COc1ccc(Nc2ncc(C#N)c(Nc3ccccc3C(N)=O)n2)cc1N1CCN(C)CC1.Cl               %Inh          0
28  CN1c2ccc(CNc3ccc(F)cc3)cc2-c2c(cnn2C)S1(=O)=O               %Inh          0
